Origin of measurements: the supplement of paper PMC12494721

system: Klebsiella aerogenes DSM 30053; assay: fold change of Histamine concentration vs plate DMSO controls (fold change (ratio)); higher = more amine produced, active = hit call of the paper (significant change in both replicates, either direction); details: 20 µM; incubation time: 27 h, anaerobic, 37 °C
Where a name gives a salt, the structure may show the parent alone.
QUANTITY: fold change of Histamine concentration

[[record]]
compound = "CC(Cc1ccccc1)NCCC(c1ccccc1)c1ccccc1 (centres undefined) [Prenylamine lactate]"
value = "0.979 (inactive)"

[[record]]
compound = "CNC(C)(C)Cc1ccccc1 [Mephentermine hemisulfate]"
value = "0.952 (inactive)"

[[record]]
compound = "C[C@]12CC[C@H](O)CC1=CC[C@@H]1[C@@H]2CC[C@]2(C)C(=O)CC[C@@H]12 [Prasterone]"
value = "0.984 (inactive)"

[[record]]
compound = "COc1cccc(C(=O)NN(C(=O)c2cc(C)cc(C)c2)C(C)(C)C)c1C"
value = "0.994 (inactive)"

[[record]]
compound = "Cc1cc(C(C#N)c2ccc(Cl)cc2)c(Cl)cc1NC(=O)c1cc(I)cc(I)c1O (centres undefined) [Closantel]"
value = "0.981 (inactive)"

[[record]]
compound = "COC(=O)N(OC)c1ccccc1COc1ccn(-c2ccc(Cl)cc2)n1"
value = "1.02 (inactive)"

[[record]]
compound = "COc1cc(OC)nc(NC(=O)NS(=O)(=O)c2ncccc2C(=O)N(C)C)n1"
value = "0.96 (inactive)"

[[record]]
compound = "Cc1nnc(-c2ccccc2)c(=O)n1N"
value = "1.04 (inactive)"

[[record]]
compound = "CCN[C@@H](C)Cc1cccc(C(F)(F)F)c1 [Dexfenfluramine hydrochloride]"
value = "0.833 (inactive)"


###

tested on: Escherichia coli IAI1; assay: fold change of Cadaverine concentration vs plate DMSO controls (fold change (ratio)); higher = more amine produced, active = hit call of the paper (significant change in both replicates, either direction); settings: 20 µM; incubation time: 27 h, anaerobic, 37 °C
Counter-ions that a name gives are not always drawn.
QUANTITY: fold change of Cadaverine concentration

[[record]]
compound = "CO/C=C(/C(=O)OC)c1ccccc1COc1cccc(C(F)(F)F)n1"
quantity = "fold change of Cadaverine concentration"
value = 1

[[record]]
compound = "O=S(=O)(c1ccc(O)cc1)c1ccc(O)cc1"
quantity = "fold change of Cadaverine concentration"
value = 0.961

[[record]]
compound = "C=CC[C@]1(O)CC[C@H]2[C@@H]3CCC4=CC(=O)CCC4=C3C=C[C@@]21C"
quantity = "fold change of Cadaverine concentration"
value = 1.42

[[record]]
compound = "CCC1(CC)C(=O)C=CNC1=O"
quantity = "fold change of Cadaverine concentration"
value = 1

[[record]]
compound = "COc1ccc(OC)c(C(O)C(C)N)c1 (centres undefined) [Methoxamine hydrochloride]"
quantity = "fold change of Cadaverine concentration"
value = 0.968

[[record]]
compound = "CN1[C@@H]2CC[C@H]1C[C@@H](OC1c3ccccc3CCc3ccccc31)C2 [Deptropine citrate]"
quantity = "fold change of Cadaverine concentration"
value = 1.11

[[record]]
compound = "CCn1cc(C(=O)O)c(=O)c2cc3c(cc21)OCO3"
quantity = "fold change of Cadaverine concentration"
value = 0.227

[[record]]
compound = "CC(C)CC(C)c1sccc1NC(=O)c1cn(C)nc1C(F)(F)F (centres undefined)"
quantity = "fold change of Cadaverine concentration"
value = 1

[[record]]
compound = "COc1ccc(CCN2CCC(Nc3nc4ccccc4n3Cc3ccc(F)cc3)CC2)cc1"
quantity = "fold change of Cadaverine concentration"
value = 1.05


###

tested on: Klebsiella aerogenes DSM 30053; test: fold change of Cadaverine concentration vs plate DMSO controls (fold change (ratio)); higher = more amine produced, active = hit call of the paper (significant change in both replicates, either direction); conditions: 20 µM; incubation time: 27 h, anaerobic, 37 °C
Counter-ions that a name gives are not always drawn.
QUANTITY: fold change of Cadaverine concentration

[[record]]
molecule = "CC(C)C[C@H]1C(=O)N2CCC[C@H]2[C@]2(O)O[C@](NC(=O)[C@@H]3C=C4c5cccc6[nH]c(Br)c(c56)C[C@H]4N(C)C3)(C(C)C)C(=O)N12 [Bromocryptine mesylate]"
assay_target = "Klebsiella aerogenes DSM 30053"
quantity = "fold change of Cadaverine concentration"
value = 1.01

[[record]]
molecule = "COc1cc(OC)nc(NC(=O)NS(=O)(=O)c2ncccc2C(=O)N(C)C)n1"
assay_target = "Klebsiella aerogenes DSM 30053"
quantity = "fold change of Cadaverine concentration"
value = 1.01

[[record]]
molecule = "CNC(=O)/C=C(\\C)OP(=O)(OC)OC"
assay_target = "Klebsiella aerogenes DSM 30053"
quantity = "fold change of Cadaverine concentration"
value = 0.998

[[record]]
molecule = "NCC(O)c1ccc(O)cc1 (stereo not given) [Octopamine hydrochloride]"
assay_target = "Klebsiella aerogenes DSM 30053"
quantity = "fold change of Cadaverine concentration"
value = 1

[[record]]
molecule = "CC(=O)[C@H]1CC[C@H]2[C@@H]3CC[C@H]4C[C@H](O)CC[C@]4(C)[C@H]3C(=O)C[C@]12C [Alfaxalone]"
assay_target = "Klebsiella aerogenes DSM 30053"
quantity = "fold change of Cadaverine concentration"
value = 1.02

[[record]]
molecule = "CC1(C)C(C(=O)OC(C#N)c2cccc(Oc3ccccc3)c2)C1(C)C (stereo not given)"
assay_target = "Klebsiella aerogenes DSM 30053"
quantity = "fold change of Cadaverine concentration"
value = 1

[[record]]
molecule = "CCNC(=O)NC(=O)/C(C#N)=N/OC"
assay_target = "Klebsiella aerogenes DSM 30053"
quantity = "fold change of Cadaverine concentration"
value = 1.02

[[record]]
molecule = "CCC(=O)Nc1ccc(Cl)c(Cl)c1"
assay_target = "Klebsiella aerogenes DSM 30053"
quantity = "fold change of Cadaverine concentration"
value = 1.16

[[record]]
molecule = "CCCN(CCC)N=O [NDPA (N-nitrosodipropylamine)]"
assay_target = "Klebsiella aerogenes DSM 30053"
quantity = "fold change of Cadaverine concentration"
value = 1.01

[[record]]
molecule = "C[N+]1(C)CCCC(OC(=O)C(O)(c2ccccc2)c2ccccc2)C1 (stereo not given) [Mepenzolate bromide]"
assay_target = "Klebsiella aerogenes DSM 30053"
quantity = "fold change of Cadaverine concentration"
value = 1.01


###

system: Escherichia coli IAI1; assay: growth (OD595) fold change vs plate DMSO controls (fold change (ratio)); higher = more growth; settings: 20 µM; incubation time: 27 h, anaerobic, 37 °C
Counter-ions that a name gives are not always drawn.
QUANTITY: growth

[[record]]
compound = "CNC(=O)Oc1cccc2ccccc12"
quantity = "growth"
value = 0.98

[[record]]
compound = "CCOCN(C(=O)CCl)c1c(C)cccc1CC"
quantity = "growth"
value = 1.01

[[record]]
compound = "COP(=S)(OC)Oc1ccc(SC)c(C)c1"
quantity = "growth"
value = 1.09

[[record]]
compound = "NCC1(CC(=O)O)CCCCC1 [Gabapentin]"
quantity = "growth"
value = 1.15

[[record]]
compound = "CC(=O)O[C@H]1C[C@@H]2CC[C@@H]3[C@H](CC[C@@]4(C)[C@H]3C[C@H]([N+]3(C)CCCCC3)[C@@H]4OC(C)=O)[C@@]2(C)C[C@@H]1[N+]1(C)CCCCC1 [Pancuronium bromide]"
quantity = "growth"
value = 1.08

[[record]]
compound = "Cc1cc(C)nc(Nc2ccccc2)n1"
quantity = "growth"
value = 1.06

[[record]]
compound = "C[N+]12CCC(CC1)C(OC(=O)C(O)(c1ccccc1)c1ccccc1)C2 (centres undefined) [Clidinium bromide]"
quantity = "growth"
value = 1.04

[[record]]
compound = "CC(C)N(CCC(C(N)=O)(c1ccccc1)c1ccccn1)C(C)C (centres undefined) [Disopyramide]"
quantity = "growth"
value = 1.04

[[record]]
compound = "CN1C[C@H](CNC(=O)OCc2ccccc2)C[C@@H]2c3cccc4c3c(cn4C)C[C@H]21 [Metergoline]"
quantity = "growth"
value = 1.09

[[record]]
compound = "CNC(=O)/C=C(\\C)OP(=O)(OC)OC"
quantity = "growth"
value = 1.01

[[record]]
compound = "C[C@]12CC[C@H](O)CC1=CC[C@@H]1[C@@H]2CC[C@]2(C)C(=O)CC[C@@H]12 [Prasterone]"
quantity = "growth"
value = 1.01

[[record]]
compound = "CN1[C@@H]2C[C@@H](OC(=O)[C@H](CO)c3ccccc3)C[C@H]1[C@@H]1O[C@@H]12 [Scopolamine hydrochloride]"
quantity = "growth"
value = 1.01

[[record]]
compound = "CC1(C)C(C(=O)OC(C#N)c2cccc(Oc3ccccc3)c2)C1(C)C (centres undefined)"
quantity = "growth"
value = 1.02

[[record]]
compound = "C#CCOc1ccc(CCNC(=O)C(OCC#C)c2ccc(Cl)cc2)cc1OC (centres undefined)"
quantity = "growth"
value = 1.06

[[record]]
compound = "CCCC(C)(COC(N)=O)COC(=O)NC(C)C (centres undefined) [Carisoprodol]"
quantity = "growth"
value = 1.01

[[record]]
compound = "O=[N+]([O-])c1cc(C(F)(F)F)c(Cl)c([N+](=O)[O-])c1Nc1ncc(C(F)(F)F)cc1Cl"
quantity = "growth"
value = 0.986

[[record]]
compound = "C[C@]12CC[C@H]3[C@@H](CCC4=CC(=O)CC[C@@H]43)[C@@H]1CC[C@@H]2O [Nandrolone]"
quantity = "growth"
value = 1.06

[[record]]
compound = "C[C@@H]1CC[C@H]2[C@@H](C)C(=O)O[C@@H]3O[C@@]4(C)CC[C@@H]1[C@]32OO4 [Artemisinin]"
quantity = "growth"
value = 0.972

[[record]]
compound = "CC(=NC#N)N(C)Cc1ccc(Cl)nc1"
quantity = "growth"
value = 0.971

